These data points were gathered from paper PMC3592791.

TARGET_OR_SYSTEM: α3 GlyR (Homo sapiens)
COND: read-out: Averaged glycine EC50; HEK293 cells, individual well, Fig. 3A, n = 212 cells
MEASURED_ENDPOINT: pEC50
Answer as the number alone; pEC50 is minus log10 of concentration in mol/L.

// query pEC50 value for entry NCC(=O)O
3.73

---

TARGET_OR_SYSTEM: α3β GlyR (Homo sapiens, UniProt O75311+P48167)
Sequence (O75311 34-464): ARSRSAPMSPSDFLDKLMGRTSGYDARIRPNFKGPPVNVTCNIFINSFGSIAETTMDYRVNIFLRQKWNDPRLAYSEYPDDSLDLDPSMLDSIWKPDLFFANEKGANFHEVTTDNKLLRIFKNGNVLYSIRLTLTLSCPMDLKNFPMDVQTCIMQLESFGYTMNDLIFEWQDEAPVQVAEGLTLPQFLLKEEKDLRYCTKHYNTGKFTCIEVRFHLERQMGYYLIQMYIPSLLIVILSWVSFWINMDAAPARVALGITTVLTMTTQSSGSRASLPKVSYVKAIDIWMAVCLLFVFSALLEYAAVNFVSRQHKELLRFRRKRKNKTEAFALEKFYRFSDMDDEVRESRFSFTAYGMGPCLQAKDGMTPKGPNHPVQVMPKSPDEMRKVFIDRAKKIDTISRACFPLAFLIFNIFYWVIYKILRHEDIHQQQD
Sequence (P48167 23-497): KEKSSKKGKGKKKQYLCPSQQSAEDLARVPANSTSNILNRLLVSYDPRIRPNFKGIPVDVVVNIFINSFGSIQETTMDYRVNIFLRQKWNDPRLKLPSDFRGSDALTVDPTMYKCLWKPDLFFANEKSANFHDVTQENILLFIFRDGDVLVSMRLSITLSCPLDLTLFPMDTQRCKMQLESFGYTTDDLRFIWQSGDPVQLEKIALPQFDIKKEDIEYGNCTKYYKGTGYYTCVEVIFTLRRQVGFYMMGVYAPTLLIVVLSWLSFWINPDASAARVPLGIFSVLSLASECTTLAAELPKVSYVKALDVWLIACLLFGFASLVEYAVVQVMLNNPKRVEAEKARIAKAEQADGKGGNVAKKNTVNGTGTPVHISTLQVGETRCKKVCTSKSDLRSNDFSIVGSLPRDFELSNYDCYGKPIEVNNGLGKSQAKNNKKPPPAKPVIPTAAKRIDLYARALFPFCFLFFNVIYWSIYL
COND: read-out: Median half-maximal activation by glycine (EC50), control conditions; no drug, Fig. 4F, n = 122
MEASURED_ENDPOINT: EC50 (µM)
Entry rule: numbers only, all in µM.

GET /values?readout=EC50&system=α3β GlyR (Homo sapiens, UniProt O75311+P48167)&item= NCC(=O)O
46.8
